# credit: ChEMBL document CHEMBL6153089

Here, each record is paired with measured pIC50 data.
measuredTarget: Bromodomain-containing protein 4 (Homo sapiens)
procedureDetails: Inhibition of His-tagged BRD4-BD2 (unknown origin) incubated for 30 mins in presence of ATP by Alphascreen assay
pIC50: −log10 of the molar value.
quantityName: pIC50

[[record]]
structurestring = "Cn1cc(-c2nc(N3CCOCC3)c3sc(CN4CCC(C(C)(C)O)CC4)cc3n2)c2cc[nH]c2c1=O"
quantityname = "pIC50"
endpointresult = 8.70

[[record]]
structurestring = "O=c1cc(N2CCOCC2)oc2c(-c3ccc4c(c3)OCCO4)csc12"
quantityname = "pIC50"
endpointresult = 6.63


---

measuredTarget: Bromodomain-containing protein 2 (Homo sapiens, UniProt P25440)
Sequence (P25440 whole entry): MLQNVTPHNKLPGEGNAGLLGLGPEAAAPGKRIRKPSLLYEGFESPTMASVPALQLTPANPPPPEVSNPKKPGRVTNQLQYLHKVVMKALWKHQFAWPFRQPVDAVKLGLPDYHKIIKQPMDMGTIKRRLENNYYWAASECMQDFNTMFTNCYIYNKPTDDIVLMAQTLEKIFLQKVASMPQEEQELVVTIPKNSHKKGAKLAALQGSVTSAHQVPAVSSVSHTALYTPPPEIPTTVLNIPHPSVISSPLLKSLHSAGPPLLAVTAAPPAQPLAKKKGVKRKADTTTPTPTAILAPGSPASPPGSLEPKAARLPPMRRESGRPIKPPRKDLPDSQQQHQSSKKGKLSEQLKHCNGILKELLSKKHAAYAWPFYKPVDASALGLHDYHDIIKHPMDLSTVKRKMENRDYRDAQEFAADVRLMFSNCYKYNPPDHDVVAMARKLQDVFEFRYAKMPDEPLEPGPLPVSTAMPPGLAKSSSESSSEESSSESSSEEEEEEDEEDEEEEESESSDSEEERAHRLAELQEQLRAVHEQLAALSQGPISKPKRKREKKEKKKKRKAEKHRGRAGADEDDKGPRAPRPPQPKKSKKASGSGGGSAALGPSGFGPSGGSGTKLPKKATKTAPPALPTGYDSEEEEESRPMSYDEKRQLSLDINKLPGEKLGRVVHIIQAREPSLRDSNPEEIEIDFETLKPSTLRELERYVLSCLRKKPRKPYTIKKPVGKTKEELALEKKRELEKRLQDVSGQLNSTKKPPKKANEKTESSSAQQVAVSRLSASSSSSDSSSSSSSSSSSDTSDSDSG
procedureDetails: Inhibition of His-tagged BRD2-BD1 (unknown origin) incubated for 30 mins in presence of ATP by Alphascreen assay
quantityName: IC50 (nM)

[[record]]
structurestring = "O=c1cc(N2CCOCC2)oc2c(-c3ccc4c(c3)OCCO4)csc12"
quantityname = "IC50"
unit = "nM"
endpointresult = 383

[[record]]
structurestring = "Cn1cc(-c2nc(N3CCOCC3)c3sc(CN4CCC(C(C)(C)O)CC4)cc3n2)c2cc[nH]c2c1=O"
quantityname = "IC50"
unit = "nM"
endpointresult = 18


---

measuredTarget: PI3-kinase p110-alpha/p85-alpha (Homo sapiens)
Sequence (P27986 whole entry): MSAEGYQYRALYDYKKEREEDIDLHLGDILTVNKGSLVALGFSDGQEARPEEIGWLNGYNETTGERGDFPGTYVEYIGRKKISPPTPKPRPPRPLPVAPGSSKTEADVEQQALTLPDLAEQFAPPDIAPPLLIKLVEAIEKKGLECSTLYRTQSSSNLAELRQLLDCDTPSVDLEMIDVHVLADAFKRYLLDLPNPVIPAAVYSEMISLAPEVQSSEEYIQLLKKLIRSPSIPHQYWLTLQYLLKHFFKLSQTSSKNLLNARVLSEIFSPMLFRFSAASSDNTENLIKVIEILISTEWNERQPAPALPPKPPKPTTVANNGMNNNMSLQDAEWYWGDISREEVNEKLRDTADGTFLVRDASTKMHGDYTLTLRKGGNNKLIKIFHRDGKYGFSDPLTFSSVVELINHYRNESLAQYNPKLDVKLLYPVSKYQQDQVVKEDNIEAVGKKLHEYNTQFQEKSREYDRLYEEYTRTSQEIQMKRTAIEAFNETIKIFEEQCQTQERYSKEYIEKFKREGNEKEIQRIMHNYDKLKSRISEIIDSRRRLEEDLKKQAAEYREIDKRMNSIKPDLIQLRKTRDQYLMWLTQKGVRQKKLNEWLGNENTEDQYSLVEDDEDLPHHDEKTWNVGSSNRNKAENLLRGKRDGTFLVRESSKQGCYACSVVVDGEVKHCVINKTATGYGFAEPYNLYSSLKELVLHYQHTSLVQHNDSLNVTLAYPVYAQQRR
Sequence (P42336 whole entry): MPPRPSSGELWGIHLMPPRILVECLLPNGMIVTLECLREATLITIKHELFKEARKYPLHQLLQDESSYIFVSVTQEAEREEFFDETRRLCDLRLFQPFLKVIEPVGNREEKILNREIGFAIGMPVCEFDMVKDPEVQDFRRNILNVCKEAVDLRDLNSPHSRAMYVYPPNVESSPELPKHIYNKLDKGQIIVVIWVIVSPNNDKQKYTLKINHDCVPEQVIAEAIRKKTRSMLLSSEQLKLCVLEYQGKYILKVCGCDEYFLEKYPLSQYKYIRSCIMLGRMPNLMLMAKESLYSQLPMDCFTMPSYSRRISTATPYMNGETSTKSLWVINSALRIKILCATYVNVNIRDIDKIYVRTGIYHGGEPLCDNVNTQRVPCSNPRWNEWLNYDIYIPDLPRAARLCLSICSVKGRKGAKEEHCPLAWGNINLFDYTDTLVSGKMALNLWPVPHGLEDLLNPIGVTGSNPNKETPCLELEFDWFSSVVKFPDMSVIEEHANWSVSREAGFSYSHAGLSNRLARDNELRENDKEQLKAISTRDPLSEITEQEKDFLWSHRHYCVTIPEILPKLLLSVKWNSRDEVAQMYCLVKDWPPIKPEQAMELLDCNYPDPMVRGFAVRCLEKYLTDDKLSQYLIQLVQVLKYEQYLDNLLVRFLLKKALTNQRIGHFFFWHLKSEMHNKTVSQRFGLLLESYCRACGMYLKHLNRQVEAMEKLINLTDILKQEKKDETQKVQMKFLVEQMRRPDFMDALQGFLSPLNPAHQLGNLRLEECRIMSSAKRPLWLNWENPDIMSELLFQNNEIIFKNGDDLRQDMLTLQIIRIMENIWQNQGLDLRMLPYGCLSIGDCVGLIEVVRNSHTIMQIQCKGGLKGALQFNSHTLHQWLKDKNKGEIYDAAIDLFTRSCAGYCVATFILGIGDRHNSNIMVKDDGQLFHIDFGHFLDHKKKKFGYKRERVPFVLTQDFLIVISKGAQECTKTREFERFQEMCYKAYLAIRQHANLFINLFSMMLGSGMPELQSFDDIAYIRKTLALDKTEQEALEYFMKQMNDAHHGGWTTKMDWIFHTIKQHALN
procedureDetails: Inhibition of p110alpha/p85alpha (unknown origin) incubated for 2 hrs in presence of ATP by ADP-kinaseGlo reagent based assay
quantityName: IC50 (µM)

[[record]]
structurestring = "Cn1cc(-c2nc(N3CCOCC3)c3sc(CN4CCC(C(C)(C)O)CC4)cc3n2)c2cc[nH]c2c1=O"
quantityname = "IC50"
endpointresult = 6.13


---

measuredTarget: Bromodomain-containing protein 4 (Homo sapiens, UniProt O60885)
procedureDetails: Inhibition of His-tagged BRD4-BD1 (unknown origin) at 10 nM incubated for 30 mins by Alphascreen assay relative to control
quantityName: inhibition (%)

[[record]]
structurestring = "C[C@H](N)C(=O)N1CCN(Cc2cc3nc(-c4cn(C)c(=O)c5[nH]ccc45)nc(N4CCOCC4)c3s2)CC1"
unit = "%"
endpointresult = 59.9

[[record]]
structurestring = "CC(=O)N1CCN(Cc2cc3nc(-c4cn(C)c(=O)c5[nH]ccc45)nc(N4CCOCC4)c3s2)CC1"
unit = "%"
endpointresult = 44.2

[[record]]
structurestring = "CNc1cc(-c2nc(N3CCOCC3)c3sc(CN4CCN(CC5CC5)CC4)cc3n2)cn(C)c1=O"
unit = "%"
endpointresult = 9.1

[[record]]
structurestring = "C[C@@H](O)C(=O)N1CCN(Cc2cc3nc(-c4cn(C)c(=O)c5[nH]ccc45)nc(N4CCOCC4)c3s2)CC1"
unit = "%"
endpointresult = 38.2


---

procedureDetails: Tmax in female BALB/c mouse at 1 mg/kg, iv measured after 12 hrs by LC-MS/MS analysis
Type: ADME, organism-based
conditionDescription: in vivo
quantityName: Tmax (min)

[[record]]
structurestring = "Cn1cc(-c2nc(N3CCOCC3)c3sc(CN4CCC(C(C)(C)O)CC4)cc3n2)c2cc[nH]c2c1=O"
quantityname = "Tmax"
endpointresult = 1.98


---

measuredTarget: Bromodomain-containing protein 4 (Homo sapiens)
procedureDetails: Inhibition of His-tagged BRD4-BD1 (unknown origin) at 10 nM incubated for 30 mins by Alphascreen assay relative to control
quantityName: inhibition (%)

[[record]]
structurestring = "Cn1cc(-c2nc(N3CCOCC3)c3sc(CN4CCN(C(=O)CO)CC4)cc3n2)c2cc[nH]c2c1=O"
quantityname = "inhibition"
endpointresult = 35.2

[[record]]
structurestring = "Cn1cc(-c2nc(N3CCOCC3)c3sc(CN4CCN(CC5CC5)CC4)cc3n2)cc(N)c1=O"
quantityname = "inhibition"
endpointresult = 18.1

[[record]]
structurestring = "Cn1cc(-c2nc(N3CCOCC3)c3sc(CN4CCN(CC5CC5)CC4)cc3n2)c2cn[nH]c2c1=O"
quantityname = "inhibition"
endpointresult = 12.7

[[record]]
structurestring = "Cn1cc(-c2nc(N3CCOCC3)c3sc(CN4CCN(C(=O)C(C)(C)O)CC4)cc3n2)c2cc[nH]c2c1=O"
quantityname = "inhibition"
endpointresult = 32.6


---

measuredTarget: PI3-kinase p110-delta/p85-alpha (Homo sapiens) (UniProt P27986+O00329)
procedureDetails: Inhibition of p110delta/p85alpha (unknown origin) at 100 nM incubated for 2 hrs in presence of ATP by ADP-kinaseGlo reagent based assay relative to control
Type: protein-complex assay
Would you please tag the item label 1 when its inhibition is 40% or above, and label 0 when it is below?

[[record]]
structurestring = "Cn1cc(-c2nc(N3CCOCC3)c3sc(CN4CCN(CC5CC5)CC4)cc3n2)cc(N)c1=O"
cat = "label 0"

[[record]]
structurestring = "Cn1cc(-c2nc(N3CCOCC3)c3sc(CN4CCN(C(=O)CN)CC4)cc3n2)c2cc[nH]c2c1=O"
cat = "label 0"

[[record]]
structurestring = "C[C@@H](O)C(=O)N1CCN(Cc2cc3nc(-c4cn(C)c(=O)c5[nH]ccc45)nc(N4CCOCC4)c3s2)CC1"
cat = "label 0"

[[record]]
structurestring = "Cn1cc(-c2nc(N3CCOCC3)c3sc(CN4CCN(C(=O)CO)CC4)cc3n2)c2cc[nH]c2c1=O"
cat = "label 0"

[[record]]
structurestring = "Cn1cc(-c2nc(N3CCCCC3)c3sc(CN4CCN(CC5CC5)CC4)cc3n2)c2cc[nH]c2c1=O"
cat = "label 0"

[[record]]
structurestring = "C[C@H](O)C(=O)N1CCN(Cc2cc3nc(-c4cn(C)c(=O)c5[nH]ccc45)nc(N4CCOCC4)c3s2)CC1"
cat = "label 0"

[[record]]
structurestring = "CC(=O)N1CCN(Cc2cc3nc(-c4cn(C)c(=O)c5[nH]ccc45)nc(N4CCOCC4)c3s2)CC1"
cat = "label 1"

[[record]]
structurestring = "Cn1cc(-c2nc(N3CCOCC3)c3sc(CN4CCC(C(C)(C)O)CC4)cc3n2)c2cc[nH]c2c1=O"
cat = "label 1"

[[record]]
structurestring = "Cn1cc(-c2nc(N3CCOCC3)c3sc(CN4CCN(CC5CC5)CC4)cc3n2)ccc1=O"
cat = "label 0"

[[record]]
structurestring = "Cn1cc(-c2nc(N3CCOCC3)c3sc(CN4CCN(S(C)(=O)=O)CC4)cc3n2)c2cc[nH]c2c1=O"
cat = "label 1"

[[record]]
structurestring = "CC(=O)Nc1cc(-c2nc(N3CCOCC3)c3sc(CN4CCN(CC5CC5)CC4)cc3n2)cn(C)c1=O"
cat = "label 0"

[[record]]
structurestring = "Cn1cc(-c2nc(N3CCOCC3)c3sc(CN4CCN(CC5CC5)CC4)cc3n2)c2cn[nH]c2c1=O"
cat = "label 1"


---

procedureDetails: AUC (0 to t) in female BALB/c mouse at 1 mg/kg, iv measured after 12 hrs by LC-MS/MS analysis
Type: ADME, organism-based
conditionDescription: in vivo
quantityName: AUC(0-t) at 12 h (ng·h/mL)

[[record]]
structurestring = "Cn1cc(-c2nc(N3CCOCC3)c3sc(CN4CCC(C(C)(C)O)CC4)cc3n2)c2cc[nH]c2c1=O"
quantityname = "AUC(0-t) at 12 h"
endpointresult = 145


---

Here, each record is paired with measured inhibition data.
measuredTarget: PI3-kinase p110-delta/p85-alpha (Homo sapiens) (UniProt P27986+O00329)
procedureDetails: Inhibition of p110delta/p85alpha (unknown origin) at 100 nM incubated for 2 hrs in presence of ATP by ADP-kinaseGlo reagent based assay relative to control
Format: protein-complex assay
quantityName: inhibition (%)

[[record]]
structurestring = "C[C@@H](N)C(=O)N1CCN(Cc2cc3nc(-c4cn(C)c(=O)c5[nH]ccc45)nc(N4CCOCC4)c3s2)CC1"
endpointresult = 16.2

[[record]]
structurestring = "Cc1c(-c2nc(N3CCOCC3)c3sc(CN4CCN(CC5CC5)CC4)cc3n2)cn(C)c(=O)c1N"
endpointresult = 6

[[record]]
structurestring = "Cn1cc(-c2nc(N3CCOCC3)c3sc(CN4CCN(C(=O)C(C)(C)O)CC4)cc3n2)c2cc[nH]c2c1=O"
endpointresult = 20.1

[[record]]
structurestring = "C[C@H](N)C(=O)N1CCN(Cc2cc3nc(-c4cn(C)c(=O)c5[nH]ccc45)nc(N4CCOCC4)c3s2)CC1"
endpointresult = 19.5

[[record]]
structurestring = "Cn1cc(-c2nc(N3CCOCC3)c3sc(CN4CCN(CC5CC5)CC4)cc3n2)c2cc[nH]c2c1=O"
endpointresult = 19.5

[[record]]
structurestring = "CNc1cc(-c2nc(N3CCOCC3)c3sc(CN4CCN(CC5CC5)CC4)cc3n2)cn(C)c1=O"
endpointresult = 6

[[record]]
structurestring = "Cn1cc(-c2nc(N3CCOCC3)c3sc(CN4CCC(O)CC4)cc3n2)c2cc[nH]c2c1=O"
endpointresult = 19.4

[[record]]
structurestring = "Cn1ccc(-c2nc(N3CCOCC3)c3sc(CN4CCN(CC5CC5)CC4)cc3n2)cc1=O"
endpointresult = 24.1

